Values were extracted from a collection of fitness landscapes (doi:10.1016/j.celrep.2020.107928).

The following variants are shown together with reported one-hybrid fitness for binding NBS DNA values.
B1: Caulobacter ParB omega fusion; a variant is named by its letters at X, in order, B8GW30 (parent)
chain: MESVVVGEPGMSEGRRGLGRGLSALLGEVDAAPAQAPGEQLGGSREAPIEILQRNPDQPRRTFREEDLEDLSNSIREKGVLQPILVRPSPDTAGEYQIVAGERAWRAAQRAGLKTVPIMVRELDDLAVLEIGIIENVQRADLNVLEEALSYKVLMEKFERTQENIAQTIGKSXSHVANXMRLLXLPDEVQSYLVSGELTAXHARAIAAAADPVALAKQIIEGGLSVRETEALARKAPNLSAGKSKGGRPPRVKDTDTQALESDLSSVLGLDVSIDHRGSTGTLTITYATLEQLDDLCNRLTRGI

variants of: B1; assay: one-hybrid fitness for binding NBS DNA (the Noc-binding site; scaled: cognate 1, non-cognate 0); higher = stronger binding; details: with NBS DNA site
The full ranking holds about 81,000 sequences; the median of “one-hybrid fitness for binding NBS DNA” is about -0.1, and the highest 2% start at about 0.36. The list comes from a sample in which the highest values are over-represented; it also holds close analogues and randomly drawn sequences.

The examples below pair each entry with its known result.
QRPY :: ≤ 0.2
VDVI :: ≤ 0.2
VPEL :: ≤ 0.2
QQYY :: ≤ 0.2

INPUT: # get_value(readout='one-hybrid fitness for binding NBS DNA', item= WMIS )
OUTPUT: ≤ 0.2

INPUT: What one-hybrid fitness for binding NBS DNA value was documented for this variant, RMGH ?
OUTPUT: ≤ 0.2

INPUT: Would you kindly share the measured one-hybrid fitness for binding NBS DNA for RMLS ?
OUTPUT: 0.309

INPUT: // returns reported one-hybrid fitness for binding NBS DNA for input ASHP
OUTPUT: ≤ 0.2

INPUT: Which measured one-hybrid fitness for binding NBS DNA value corresponds to QHIT ?
OUTPUT: 0.349

INPUT: Quick one: one-hybrid fitness for binding NBS DNA of RSKS ?
OUTPUT: 0.567

INPUT: What value of one-hybrid fitness for binding NBS DNA has been reported for the following variant? QHIR
OUTPUT: 0.352

INPUT: Recorded one-hybrid fitness for binding NBS DNA of RRKH , please.
OUTPUT: 0.798

INPUT: Return reported one-hybrid fitness for binding NBS DNA; argument: QRKM
OUTPUT: 0.557

INPUT: Fill blank: measured one-hybrid fitness for binding NBS DNA of the variant QQRM is ____.
OUTPUT: 0.459

INPUT: Value lookup for one-hybrid fitness for binding NBS DNA; key = RMGR
OUTPUT: 0.479

INPUT: Fill blank: measured one-hybrid fitness for binding NBS DNA of the variant RLRW is ____.
OUTPUT: ≤ 0.2

INPUT: Consider the variant shown here: QRRY What is its recorded one-hybrid fitness for binding NBS DNA?
OUTPUT: 0.718

INPUT: Consider the variant shown here: VAPN What is its recorded one-hybrid fitness for binding NBS DNA?
OUTPUT: ≤ 0.2

INPUT: # get_value(readout='one-hybrid fitness for binding NBS DNA', item= DAPG )
OUTPUT: ≤ 0.2

INPUT: What value of one-hybrid fitness for binding NBS DNA has been recorded for this entry: QMRV
OUTPUT: 0.45
